TARGET_OR_TEST_SYSTEM: CRF1R
TEST_NAME: cell-based or functional assay
Ends that are not written are not given here.
METRIC_NAME: CRF1R Emax (%)
Answers are plain numbers, in %.

Some binders with known CRF1R Emax results, for comparison:
- BINDER: "ZGPPISIDLPIRLLRKMIEIEKQEKEKQQAANNRLLLDTI (C-terminal amide) [SEQ ID NO 38]"
  UOM: "%"
  RECORDED_MEASUREMENT: 11
- BINDER: "SQEPPISLDLPLHLLREVLEMTKADQLAQQAHSNRKLLDIA-NH2 [SEQ ID NO 102]"
  UOM: "%"
  RECORDED_MEASUREMENT: 7.8
- BINDER: "ZGPPISIDLPRYLLRKMIEIEKQEKEKQQAANNRLLLDTI (C-terminal amide) [SEQ ID NO 65]"
  UOM: "%"
  RECORDED_MEASUREMENT: 16
- BINDER: "ZGPPISIDLPLQLLRKMIEIEKQEKEKQQATTNARILARV (C-terminal amide) [SEQ ID NO 144]"
  UOM: "%"
  RECORDED_MEASUREMENT: 100
- BINDER: "SQEPPISLDLTIGLLREVLEMTKADQLAQQAHSNRKLLDIA-NH2 [SEQ ID NO 86]"
  UOM: "%"
  RECORDED_MEASUREMENT: 4.6

Provide the reported CRF1R Emax of each entry below, same order.
1. ZGPPISIDLPFYLLRKMIEIEKQEKEKQQAANNRLLLDTI (C-terminal amide) [SEQ ID NO 85]
2. ZGPPISIDLPTDLLRKMIEIEKQEKEKQQAANNRLLLDTI (C-terminal amide) [SEQ ID NO 49]

[84, 15]

Provide the reported CRF1R Emax of each entry below, same order.
1. IVLSLDVPGPLLQILLEQTKQEAAREQATTNARILARV-NH2 [SEQ ID NO 5]
2. ZGPPISIDLPYQLLRKMIEIEKQEKEKQQAANNRLLLDTI (C-terminal amide) [SEQ ID NO 202]
3. DNPSLSIDLPFQLLRTLLELARTQSQRERAEQNAIIFASV-NH2 [SEQ ID NO 182]
4. ZGPPISIDLPWYLLRKMIEIEKQEKEKQQAANNRLLLDTI (C-terminal amide) [SEQ ID NO 55]
5. ZGPPISIDLPAHLLRKMIEIEKQEKEKQQAANNRLLLDTI (C-terminal amide) [SEQ ID NO 206]
6. DNPSLSIDLPTYLLRTLLELARTQSQRERAEQNAIIFASV-NH2 [SEQ ID NO 173]
7. IVLSLDVPIGLLQILLEQARADAAREQATTNARILARV-NH2 [SEQ ID NO 130]
8. ZGPPISIDLPIYLLRKMIEIEKQEKEKQQATTNARILARV (C-terminal amide) [SEQ ID NO 149]

1: 9; 2: 100; 3: 89.7; 4: 92; 5: 97; 6: 6.05; 7: 9; 8: 40.7

Provide the reported CRF1R Emax of each entry below, same order.
1. IVLSLDVPIGLLQILLEQTKANAAREQATTVARILARV-NH2 [SEQ ID NO 116]
2. SQEPPISLDLPFHLLREVLEMTKADQLAQQAHSNRKLLDIA-NH2 [SEQ ID NO 104]
3. ZGPPISIDLPFVLLRKMIEIEKQEKEKQQAANNRLLLDTI (C-terminal amide) [SEQ ID NO 190]
4. ZGPPISIDLPEYLLRKMIEIEKQEKEKQQAANNRLLLDTI (C-terminal amide) [SEQ ID NO 48]
5. IVLSLDVPIGLLQILLEQAKADAAREQATTNARILARV-NH2 [SEQ ID NO 131]

1: 4.8; 2: 11.1; 3: 9; 4: 21; 5: 8

Provide the reported CRF1R Emax of each entry below, same order.
1. ZGPPISIDVPFQLLRKMIEIEKQEKEKQQATTNARILARV (C-terminal amide) [SEQ ID NO 172]
2. ZGPPISIDLPFHLLRKMIEIEKQEKEKQQATTNARILARV (C-terminal amide) [SEQ ID NO 146]
3. ZGPPISIDLPHWLLRKMIEIEKQEKEKQQAANNRLLLDTI (C-terminal amide) [SEQ ID NO 186]
4. IVLSLDVPIGLLQILLEQARAEAAREQATTNARILARV-NH2 [SEQ ID NO 122]

1: 68; 2: 100; 3: 100; 4: 10.7
